# test-method-notes: self-splicing fitness, log relative to wild type (ln ratio); higher = more splicing; Tetrahymena group I intron in knt gene, E. coli kanamycin selection, DiMSum; sequences stand for … in CUCUCU…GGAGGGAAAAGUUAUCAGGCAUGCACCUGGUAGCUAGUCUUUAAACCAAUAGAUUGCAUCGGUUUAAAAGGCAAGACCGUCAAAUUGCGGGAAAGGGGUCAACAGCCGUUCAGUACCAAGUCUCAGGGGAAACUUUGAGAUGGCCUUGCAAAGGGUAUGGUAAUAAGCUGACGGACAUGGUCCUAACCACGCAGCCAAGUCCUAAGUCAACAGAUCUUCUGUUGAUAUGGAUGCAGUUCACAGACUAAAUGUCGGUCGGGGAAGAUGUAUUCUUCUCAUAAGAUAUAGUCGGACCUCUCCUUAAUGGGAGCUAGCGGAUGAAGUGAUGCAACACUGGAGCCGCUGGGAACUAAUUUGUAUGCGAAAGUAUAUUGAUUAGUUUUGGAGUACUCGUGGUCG;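 further: selection with 25 µg/mL kanamycin versus none on LB agar overnight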
# test-conditions: 37 °C
measured-attribute: self-splicing fitness (ln)

chain-sequence: AACAAGCAAUAUUACGAACC
reported-measurement: 0.0146
//
chain-sequence: GUCAAGCAAUAUUACGAAAC
reported-measurement: 0.108
//
chain-sequence: CAACAGCAAUAUUACGGCCG
reported-measurement: 0.563
//
chain-sequence: AGUAAGCAAUAUUACGGGCG
reported-measurement: 0.152
